System: UACC-257 melanoma
ASSAY_EXPLANATION: NCI tumour cell line growth inhibition, 48 h
ENDPOINT_NAME: TGI

Quick request: TGI for each listed item, please.
1. COc1cc(NC(C)CCCNC2CN3CCC2CC3)c2ncccc2c1 (configuration not stated)
2. C=CCOc1cccc(C2(O)c3ccccc3C3=NCCCN32)c1 (configuration not stated)
3. O=C1CCCCC/C1=C\c1cccc(Cl)c1
4. CCOC(=O)N1CCN(C=S)CC1
5. COc1cc([C@@H]2OC[C@@H]3C(c4cc(OC)c5c(c4)OCO5)OC[C@@H]32)cc(OC)c1OC (some centres not stated)

Result string:
1: 5.74 µM; 2: 33.1 µM; 3: > 100 µM; 4: > 100 µM; 5: > 100 µM

Provide TGI values for the following items, in order.
1. COc1ccc(-c2cc(=O)[nH]c3c(OC)c4ccccc4c(OC)c23)cc1
2. O=C(NC1=NCC(CN2CCN(c3ccccc3)CC2)O1)Nc1ccccc1 (configuration not stated)
3. Oc1ccccc1/C=C/c1csnn1
4. CCC1C2Cc3ccc(O)cc3C1(CC)CCN2C (configuration not stated)

Result string:
> 100 µM
> 100 µM
> 100 µM
> 100 µM

Lab note: each compound below needs its TGI filled in.
1. Cc1cc(=O)n(-c2ccccc2C)c(C)n1
2. Cc1ccc(S(=O)(=O)n2cc(-c3cc(C(F)(F)F)ccn3)c3cc(Br)ccc32)cc1

Result string:
> 100 µM
> 100 µM

Query string: TGI of Nc1ncnc2nc[nH]c12 on UACC-257 melanoma?
Result string: > 250 µM

----------
Tested on: UACC-62 melanoma
ASSAY_EXPLANATION: NCI tumour cell line growth inhibition, 48 h
Assign TGI to each entry below.

Solved cases (6 shown):
INSERT INTO measurements (compound, result) VALUES
  ('CCN(CC)c1c(C(=O)/C=C/c2ccc(OC)cc2)c(-c2ccccc2)nn(C)c1=O', '28.5 µM'),
  ('O=C(CSc1nnc(-c2ccc(N=Cc3ccc(Cl)cc3)cc2)o1)Nc1ccccc1[N+](=O)[O-]', '> 100 µM'),
  ('O=C(c1cccs1)N(C(=S)N1CCN(c2ccccn2)CC1)c1ccccc1', '> 100 µM'),
  ('COc1ccc2[nH]cc(CCNC(=O)[C@H](Cc3ccccc3)NC(=O)[C@@H](NCC(F)(F)F)C(C)C)c2c1', '36.2 µM'),
  ('COC(=O)C1(C)CCC(c2ccc(C)cc2)=C(CC(=O)O)C1 (centres undefined)', '> 100 µM'),
  ('Cc1cc2ccccc2n2c1nc1ccccc12', '> 100 µM');

Need TGI for each of these compounds.
1. CCCCCCCCCCCCCCCCCCNC(=O)C(N)Cc1ccc(OCc2ccccc2)cn1 (centres undefined)
2. CN1C(=Nc2ccccc2)SC1=Nc1ccccc1
3. COC(=O)[C@@H]1CN(C(C)=O)C(=O)N1
4. Oc1ccccc1/C=C/c1csnn1
5. CCc1cc(C(=O)OC)cn1C(=N)c1ccc(Cl)cc1
6. COC(=O)N/N=C(\Cc1ccccc1)CN(C)C
7. CCOC(=O)c1cccn1S(=O)(=O)c1cc(Cl)ccc1NC(=O)CC

Result string:
1. 32.2 µM
2. > 100 µM
3. > 100 µM
4. > 100 µM
5. > 100 µM
6. > 100 µM
7. > 100 µM

----------
Test system: UACC-257 melanoma
ASSAY_EXPLANATION: NCI tumour cell line growth inhibition, 48 h; in the data active means GI50 below about 0.43 µM; inactive means the rest
Pick one and only one: y for active, n for inactive

Query string: Would you mind telling me which call this test gave CN(O)c1nc(N(C)O)nc(N2CCOCC2)n1 ?
Result string: n

----------
Give measured TGI for each item. Keep answers brief.
Tested on: PC-3 prostate
ASSAY_EXPLANATION: NCI tumour cell line growth inhibition, 48 h

Batch of 7 compounds: report TGI for each.
1. Cc1cc2c(cc1C)N(C(=O)CCl)CC(=O)N2
2. CCN(CC)CCCCNc1c2ccccc2[n+](C)c2c1[nH]c1ccccc12
3. CC(=O)NC1C(OCc2ccccc2)OC(CO)C(O)C1OC(C)C(=O)NC(C(=O)N[C@@H](CCC(=O)NCCNCCNc1c2ccccc2nc2cccc([N+](=O)[O-])c12)C(N)=O)C(C)C (stereo partly drawn)
4. CN(CCCCCl)P(=O)(OCc1ccc([N+](=O)[O-])o1)OC[C@H]1O[C@@H](n2cc(F)c(=O)[nH]c2=O)C[C@@H]1O (stereo partly drawn)
5. C=C1c2ccccc2C(=O)c2c1c1c(C(=O)OC)c(O)ccc1n2Cc1ccccc1
6. CC(CCN)(CCN)[N+](=O)[O-]
7. COc1cnc2c(c1)C(=O)c1c-2n(CCCn2ccnc2)c(=O)c2cc(F)ccc12

Result string:
1. 18.9 µM
2. 2.29 µM
3. > 100 µM
4. > 56.1 µM
5. 1.56 µM
6. > 100 µM
7. > 100 µM

Would you be so kind as to report TGI for each listed record?
1. COC1(OC)c2no[n+]([O-])c2CCC1O (stereo not drawn)
2. NC(N)=N/N=C/c1c(-c2ccc(Cl)cc2)nc2sccn12
3. C=C1C(=O)O[C@H]2[C@H]1CC/C(COC(=O)NCc1ccc(Cn3c(=O)sn(CCCl)c3=O)cc1)=C\CC[C@@]1(C)O[C@@H]21
4. COc1cc(C[C@H]2c3cc(OC)c(OC)cc3CCN2C)c(Oc2cc3c(cc2OC)-c2c(OC)c(OC)cc4c2[C@H](C3)N(C)CC4)cc1OC
5. CC/C=C1/C(=O)C=C[C@@H]1C/C=C\CCCC(=O)OC
6. COc1cc([C@@H]2OC[C@@H]3C(c4cc(OC)c5c(c4)OCO5)OC[C@@H]32)cc(OC)c1OC (stereo partly drawn)
7. Cc1cc(=O)[nH]c(-n2[nH]c(C)c(CCO)c2=O)n1

Result string:
1. > 100 µM
2. 3.33 µM
3. 21 µM
4. 33.7 µM
5. 8.56 µM
6. > 100 µM
7. > 100 µM

----------
Test system: UO-31 renal
ASSAY_EXPLANATION: NCI tumour cell line growth inhibition, 48 h
ENDPOINT_NAME: TGI

Below: 3 molecules and their reported TGI.
INSERT INTO results (molecule, endpoint_name, result) VALUES
  ('O=C1NC2ON=C(c3ccccc3)C2C2ON=C(c3ccccc3)N12 (centres undefined)', 'TGI', '> 100 µM'),
  ('NC(N)=N/N=C/c1c(-c2ccc(Cl)cc2)nc2sccn12', 'TGI', '7.49 µM'),
  ('COC(=O)C(=O)C(C(=O)C(=O)Nc1ccc(F)cc1)c1nc2ccc([N+](=O)[O-])cc2[nH]c1=O (centres undefined)', 'TGI', '> 100 µM');

Please look at the following molecule next.
Query string: Requested field: TGI. Item: C1=NCCN2CCN(CCN=Cc3ccc(cc3)OCc3cccc(n3)COc3ccc1cc3)CC2
Result string: > 50 µM

----------
System: SN12C renal
ASSAY_EXPLANATION: NCI tumour cell line growth inhibition, 48 h
*1 amine or outer side, *2 acyl side, *3 side chain or, on linkers, in order; H or OH if unused. Where a SMILES comes first, the peptide text is derived from it. [ ]: non-standard residue; d: D form. The star is where a group is joined. X31 = CC(=O)N(C)SCC(N[*:1])C(=O)[*:2]; Cbz = O=C(OCc1ccccc1)*; Bn = c1ccc(C*)cc1; For = O=C*
Please provide measured TGI for the entries that follow.

Some entries whose results are on file:
INSERT INTO results (compound, assayed_target, result) VALUES
  ('C[C@H]1[C@H](C)CC[C@]2(CO)CC[C@]3(C)C(=CC[C@@H]4[C@@]5(C)CCCNC(C)(C)[C@@H]5CC[C@]43C)[C@H]12', 'SN12C renal', '3.11 µM'),
  ('CCOc1ccc(NC(=O)C(=O)CC(=O)c2sc(NNC(C)=O)nc2C)cc1', 'SN12C renal', '> 100 µM'),
  ('Oc1ccccc1/C=C/c1csnn1', 'SN12C renal', '> 100 µM'),
  ('Cc1ccc(Nc2n[nH]c(=S)s2)cc1C', 'SN12C renal', '> 100 µM');

Report TGI for every entry below.
1. Cn1cc(C(=O)NCCC(=N)N)cc1NC(=O)C1=[N+](C)C=C(NC(=O)c2cccc(C(=O)NC3=CC(C(=O)Nc4cc(C(=O)NCCC(=N)N)cn4C)=[N+](C)C3)c2)C1
2. CC1C2(C)OC(=N)C(C#N)(C(c3ccccc3)O2)C1(C#N)C#N (stereo not given)
3. COc1cnc2c(c1)C(=O)c1c-2n(CCCn2ccnc2)c(=O)c2cc(F)ccc12
4. COC(=O)/C(C)=C(/CCC1(C)OCCO1)O[Si](C)(C)C
5. O=C(CN1CCCCC1)Nc1ccc2sc3ccccc3c(=O)c2n1
6. O=C([O-])C[n+]1ccccc1
7. CN(C)CCN1C(=O)c2ccccc2N(C)c2ccccc21

Result string:
1. > 100 µM
2. 32 µM
3. > 100 µM
4. > 100 µM
5. 68.3 µM
6. > 100 µM
7. > 100 µM

For each of the items listed, what is its TGI?
1. Cc1cc(=O)n(-c2ccccc2C)c(C)n1
2. C[N+](C)(C)CC(=O)N/N=C/c1oc(-c2c(O)ccc3ccccc23)c(-c2c(O)ccc3ccccc23)c1[N+](=O)[O-]
3. CCOc1ccc2c(c1)[n+]([O-])c(-c1ccc(Cl)cc1)c(N)[n+]2[O-]
4. O=C1/C(=C/c2cccc(Br)c2)CCc2ccccc21
5. O=C(CCCCCCCCC(=O)N/N=C\c1ccccc1O)N/N=C\c1ccccc1O
6. COc1ccc2c(c1)c(=O)oc1cc(OC/C(C)=N\O)ccc12
7. O=c1[nH]c2cc([N+](=O)[O-])ccc2nc1/C(=N/Nc1ccccc1)C(O)c1ccccc1Cl (stereo not given)

Result string:
> 100 µM
92.7 µM
> 100 µM
29.2 µM
> 42.4 µM
> 100 µM
> 100 µM

Parameter requested: TGI. Apply to each item below.
1. c1ccc2c(c1)cc(C1NCCc3[nH]cnc31)c1ccccc12 (stereo not given)
2. CC(=O)N(C)SCC(NC(=O)C(Cc1ccccc1)NC(=O)OCc1ccccc1)C(=O)NC(Cc1ccccc1)C(=O)NC(Cc1cn(C=O)c2ccccc12)C(=O)NC(CCCCNC(=O)OCc1ccccc1)C(=O)NC(C(=O)NC(CSN(C)C(C)=O)C(=O)NC(C(N)=O)C(C)OCc1ccccc1)C(C)OCc1ccccc1 (stereo not given) (Cbz-F[X31]FW(For)K(Cbz)T(Bn)[X31]T(Bn)-NH2; configuration not given here)

Result string:
1. > 100 µM
2. > 100 µM
